These data points were gathered from paper PMC9482650.

# assay_target: PTPN3, P26045
# Sequence (P26045 505-587): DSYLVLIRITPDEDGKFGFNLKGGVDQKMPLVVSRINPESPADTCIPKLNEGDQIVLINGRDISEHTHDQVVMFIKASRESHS
# experiment_description: holdup assay
# Parameters: key: below the threshold = too weak to quantify, mostly under pKd 3.1 to 4
# condition_notes: plain residues with an end cap or a label only (N-terminal biotin on a linker: ado-ado)
Exercise: for every item that follows, state its recorded pKd.
Please reply with the number alone, leaving off any unit.

Query: Quick one: pKd for KPGKGSETVV [FZD4, Q9ULV1] ?
Reply: 4.13

Query: Quick one: pKd for DRIQSCLSDA [SBF1, O95248] ?
Reply: 4.23

Query: Quick one: pKd for LPAVCYDIDI [PTTG2, Q9NZH5] ?
Reply: 4.22

Query: Quick one: pKd for RQKEVRESKC [SCN8A, Q9UQD0] ?
Reply: 4.6

Query: Quick one: pKd for SVTSERETNI [SLC16A7, O60669] ?
Reply: 4.97

Query: Quick one: pKd for TRKRSGEAAV [PFKM, P08237] ?
Reply: 4.15

Query: Quick one: pKd for DDASLPVSDV [PLEKHA1, Q9HB21] ?
Reply: 3.58

Query: Quick one: pKd for RFQQRMQTHV [KIRREL1, Q96J84] ?
Reply: 4.2

Query: Quick one: pKd for ILRKSTTTTV [PRR16, Q569H4] ?
Reply: 3.92

Query: Quick one: pKd for APIAGFSSFV [SDK2, Q58EX2] ?
Reply: 4.39

Query: Quick one: pKd for GTGYDRKDYV [CLDN3, O15551] ?
Reply: 4.04

Query: Quick one: pKd for SLNANEVEWF [RNF130, Q86XS8] ?
Reply: 4.36
